SYSTEM NAME: T1, human PAR-2 (human, UniProt P55085 26-397)
T1 sequence: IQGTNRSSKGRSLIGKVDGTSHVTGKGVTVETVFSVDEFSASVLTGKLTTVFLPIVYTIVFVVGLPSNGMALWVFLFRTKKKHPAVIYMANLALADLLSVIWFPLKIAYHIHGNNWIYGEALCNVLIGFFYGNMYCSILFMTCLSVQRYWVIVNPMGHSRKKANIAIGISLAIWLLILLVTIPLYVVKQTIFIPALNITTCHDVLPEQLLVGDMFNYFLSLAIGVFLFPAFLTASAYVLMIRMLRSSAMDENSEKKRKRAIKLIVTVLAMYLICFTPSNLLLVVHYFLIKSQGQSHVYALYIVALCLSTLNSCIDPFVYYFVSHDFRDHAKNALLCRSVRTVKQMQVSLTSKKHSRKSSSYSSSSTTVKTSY
TEST: cell-based or functional assay
REPORTED PROPERTY: IC50, PAR-2 calcium flux assay (trypsin EC80)

IN: Please look up its IC50, PAR-2 calcium flux assay (trypsin EC80): Ab1 (antibody, human IgG4, V domains shown, also called Anti-PAR-2 antibody # 1) VH: EVQLVEFGGGLVQPKGSLKLSCAASGFTFNTNAMHWVRQAPGKGLEWVARIGSKSSYFATYYADSVKDRFTISRDDSRSMFYLQMNNLKTEDTAMYYCVREDYYGSSFDLWGQGTTLTVSS VL: QIVLSQSPAILSASPGEKVTMTCRASSSLPYIHWYQQKPGSSPRPWIYATSNLASGVPARFSGRGSGTSYSLTISRMEAEDAATYYCQQWSSTPPTFGGGSKLEIK
OUT: 50.5 nM
